# SYSTEM: delF508-CFTR-HRP (Homo sapiens, UniProt P13569, DEL508-508)
# Construct: expressed in transfected cells
# Sequence (P13569 with tags, fused parts or gaps DEL508-508): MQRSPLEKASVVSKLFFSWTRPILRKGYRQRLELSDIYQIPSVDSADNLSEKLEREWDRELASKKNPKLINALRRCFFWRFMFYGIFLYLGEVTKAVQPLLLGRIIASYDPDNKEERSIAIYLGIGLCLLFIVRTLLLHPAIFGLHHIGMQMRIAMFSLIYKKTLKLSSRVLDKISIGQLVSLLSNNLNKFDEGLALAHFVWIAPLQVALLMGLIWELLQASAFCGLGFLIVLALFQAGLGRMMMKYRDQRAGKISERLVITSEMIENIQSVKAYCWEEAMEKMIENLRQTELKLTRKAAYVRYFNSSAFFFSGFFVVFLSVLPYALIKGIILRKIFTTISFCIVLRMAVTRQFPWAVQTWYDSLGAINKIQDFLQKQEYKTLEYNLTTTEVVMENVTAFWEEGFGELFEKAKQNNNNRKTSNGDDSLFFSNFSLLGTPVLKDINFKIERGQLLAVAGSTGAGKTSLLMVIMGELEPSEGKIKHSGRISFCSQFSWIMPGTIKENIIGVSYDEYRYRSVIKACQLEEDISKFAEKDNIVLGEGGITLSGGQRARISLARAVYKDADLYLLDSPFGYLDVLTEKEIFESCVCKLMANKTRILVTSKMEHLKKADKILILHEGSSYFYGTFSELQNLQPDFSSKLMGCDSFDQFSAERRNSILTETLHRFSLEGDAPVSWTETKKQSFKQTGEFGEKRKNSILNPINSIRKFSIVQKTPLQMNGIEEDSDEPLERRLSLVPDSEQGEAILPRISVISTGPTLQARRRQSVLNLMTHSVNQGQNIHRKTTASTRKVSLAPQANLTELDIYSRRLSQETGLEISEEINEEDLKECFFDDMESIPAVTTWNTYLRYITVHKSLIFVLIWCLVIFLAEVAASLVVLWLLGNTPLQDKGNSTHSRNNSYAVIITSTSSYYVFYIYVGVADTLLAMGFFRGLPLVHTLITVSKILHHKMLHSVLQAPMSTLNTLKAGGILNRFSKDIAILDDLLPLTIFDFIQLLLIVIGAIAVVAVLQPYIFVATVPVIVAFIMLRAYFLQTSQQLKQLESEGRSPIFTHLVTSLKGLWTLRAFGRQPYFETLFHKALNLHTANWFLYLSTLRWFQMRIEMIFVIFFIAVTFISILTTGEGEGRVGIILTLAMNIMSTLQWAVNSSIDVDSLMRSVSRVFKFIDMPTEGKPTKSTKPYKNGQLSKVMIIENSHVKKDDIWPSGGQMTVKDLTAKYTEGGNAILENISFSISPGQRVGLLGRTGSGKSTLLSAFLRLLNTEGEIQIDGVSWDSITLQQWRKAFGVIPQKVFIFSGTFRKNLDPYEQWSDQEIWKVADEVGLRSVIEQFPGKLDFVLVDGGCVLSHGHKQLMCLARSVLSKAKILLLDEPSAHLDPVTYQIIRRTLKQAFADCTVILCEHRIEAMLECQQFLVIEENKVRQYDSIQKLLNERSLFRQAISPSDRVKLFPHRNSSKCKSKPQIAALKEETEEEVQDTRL
# PROTOCOL_SUMMARY: Measurement of delF508-CFTR-HRP surface expression in CFBE41o- cells (HRP luminescence);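 further: percent efficacy relative to a reference CFTR corrector compound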
# Format: cell-based
# CONDITION_CONTEXT: CFBE41o-, read-out: DelF508-CFTR-HRP Amax %
PARAMETER: Emax (%)

{"COMPOUND": "O=C(NS(=O)(=O)c1cccc(N2CC[C@@H](O)C2)n1)C1(Oc2cc(Cl)ccc2C2CC3(CCC3)C2)CC1", "UNIT_SPEC": "%", "Emax": 350}
{"COMPOUND": "CC1(C)CCN(c2ccc(Cl)cc2OC2(C(=O)NS(=O)(=O)c3cccc(N4CCC(c5ccccn5)CC4)n3)CC2)CC1", "UNIT_SPEC": "%", "Emax": 493}
{"COMPOUND": "CC(C)(C)C1CCC(Oc2ccc(Cl)cc2OC2(C(=O)NS(=O)(=O)c3cccc(N4CC[C@H](O)C4)n3)CC2)CC1 (stereo partly shown)", "UNIT_SPEC": "%", "Emax": 446}

(P) Cc1ccc(C2CCCCC2)c(OC2(C(=O)NS(=O)(=O)c3cccc(N4CCO[C@@H](C)C4)n3)CC2)c1
(Q) CC(C)Cc1ccc(Cl)cc1OC1(C(=O)NS(=O)(=O)c2cccc(NC[C@H](C)O)n2)CC1
(R) CC1CC(C)CN(c2ccc(Cl)cc2OC2(C(=O)NS(=O)(=O)c3cccc(N4CC[C@H](O)C4)n3)CC2)C1 (stereo partly shown)
(S) CC1(C)CCN(c2ccc(Cl)cc2OC2(C(=O)NS(=O)(=O)c3cccc(N4CCC(O)(c5cccc(C(F)(F)F)c5)CC4)n3)CC2)CC1
Put the entries in order of Emax, starting with the largest number. Answer by listing the labels in the order asked for.
S, P, R, Q
(S: 746%, P: 416%, R: 176%, Q: 115%)
